- Tested on: MS2 coat protein
- METHOD_NOTES: apparent KD of MS2 coat protein, switch OFF state (with FMN for OFF switches, without FMN for ON switches); designed switch direction (-1 OFF switch, 1 ON switch): -1; higher = weaker reporter binding
- CONDITION_DETAILS: FMN input: 0 or 200 uM; Eterna round: R93 (includes R88 designs)
Mark Condition not met for apparent KD of MS2 coat protein values under 0.04 µM, and Condition met for everything at or above.

Answered cases to consult:
AAAUGACAUGAGGAUCACCCAUGUCAGGAUAUGACUUGAAAAUAAAAUAAAAAACAUGUCAGAAGGGACAUGGG [Design 50: Sub-opt F] ... Condition not met
AGUAGAUCAGGAUAUACAUGAAAGAUCAAAAUGUCCAAUAUACAUGAGGAUCACCCAUGUAGAAGGGAUCUACA [Ex2 Design 115: Not so Super Stable 2] ... Condition met
AAAACACAUGAGGAUCACCCAUGUCAGGAUAUACGAGAAAGAAAAGAAAAGAAAAGAAGUAGAAGGGACUAGAA [Exclusion1 Malc#3] ... Condition not met
UUAAAACAUGAGGAUCACCCAUGUGAGGAUAUGCAAUACUAAUAUUAAAAUAAUUAUAGCAGAAGGCACAUAGU [JR_EXc001_Sub802] ... Condition met
AAAAAGAUAGGAUAUACGAACAUGUCGAAAGACGUGAAGGGACAUGAGGAUCACCCAUGUAGAAGGGUUAAAAA [Mat - Exclusion 2 - JL mod - D88] ... Condition met
AGUUGGCGAGGAUAUACAUGAGGAUCACCCAUGUGAAAUCGAGAAAAAAUAGGGAAAAGUAGAAGGCGCUGACA [Ruby 62] ... Condition met
UCUUGACAUGAGGAUCACCCAUGUCAGGAUAUAGUAGGACAAAUAAAUAAAAGUAAUACUAGAAGGGAUAUGGG [Amethyst 52] ... Condition not met
AAAAAGAGAGGAUAUACAUGAGGAUCACCCAUGUGACACAAAAUAAAUAAAAUAAAGUGUAGAAGGCUCAAAAA [65%, Moding Exclusion3-cac2, 20] ... Condition met
AAAAACGGAGGAUAUACAUGAGGAUCACCCAUGUAAAAAAAAAAAAAGGGAAAAAAAAGUAGAAGGCCGAAAAA [Sekhemrekhutawy Pantjeny] ... Condition met
ACGUAGAGAGGAUAUACGAACAUGUCAAAAGACGUGAAGGGACAUGAGGAUCACCCAUGUAGAAGGCUCUACGA [Mat - Exclusion 2 - JL mod - D8] ... Condition met

Query block: API: above_or_equal(metric=apparent KD of MS2 coat protein, cutoff=0.04 µM) for item AACAUGUCAGGAUAUGCAACAGGAGACUGACACGCGAGUGAGCAGAAGGGACAUGAGGAUCACCCAUGUUCAAA [Meechl Ex4 3]
Result block: Condition not met

Query block: API: above_or_equal(metric=apparent KD of MS2 coat protein, cutoff=0.04 µM) for item AAAAAUGGAGGAUAUACAUGAGGAUCACCCAUGUGUAACUAUACUAAGCACAAACCAAGUAGAAGGCCAAAAAA [Gilly Gone Silly 10 - Jieux - Exclusion 3]
Result block: Condition met

Query block: API: above_or_equal(metric=apparent KD of MS2 coat protein, cutoff=0.04 µM) for item GGAAAACAUGAGGAUCACCCAUGUGAGGAUAUUGAAACAAACAAAACAAACAAACAAACAAGAAGGCACAGGAA [Exclusion one redone]
Result block: Condition not met

Query block: API: above_or_equal(metric=apparent KD of MS2 coat protein, cutoff=0.04 µM) for item AUAAAACAUGAGGAUCACCCAUGUGAGGAUAUCUAAAAAGAAAGAAAAAAAAAAAAAAAGAGAAGGCACAAUAA [Amethyst 45]
Result block: Condition not met

* * *

Examples of sequences with documented apparent KD of MS2 coat protein follow.
- Tested on: MS2 coat protein
- METHOD_NOTES: apparent KD of MS2 coat protein; designed switch direction (-1 OFF switch, 1 ON switch): 1; higher = weaker reporter binding
- CONDITION_DETAILS: input ligand: microRNA oligo, concentration not stated
Return type: number; implicit unit nM.

CAUCUCCCUUUUACAUGAGGAUCACCCAUGUUUUUAUAUUGAGAGGAUAUCGUAUUUAGAAACAUCGAGAAGGCUCAUUUGUAU [JR_SSNG3_Sub072] (Eterna round: R96, puzzle: Same State NG 3) ... 89.1
AUUAAACAUGAGGAUCACCCAUGUCAACAAAGUCGAGGAUAUGGGCAAAUAAAAUAAGUACCAGAAGGCGAAUAAU [salish99_ss1_r3_066] (Eterna round: R96, puzzle: Same State 1) ... 66.1
GCUCGAAUCAGAACCAACAUGAGGAUCACCCAUGUGUGUUGGUAGGAUAUCGUUUCUAAGAGAAACGAGAAGGGCCGAACGAGC [SameState NG3 #6] (Eterna round: R96, puzzle: Same State NG 3) ... 52.3
ACCCGCGACGGAGGAUAUGGGCACUCGGCGGAAUAAACCGCCAUAACAUGAGGAUCACCCAUGUCCCAGAAGGCCGUCGCAAUC [Zaonesdive] (Eterna round: R96, puzzle: Same State NG 2) ... 303
AGCUAUUACGAAGGAUAUUCUGACAUGAGGAUCACCCAUGUCUUCAUGAUUUAUUGUGAUCACAUGAAGAAGGUCGUACUAACA [SameState NG2 #24] (Eterna round: R96, puzzle: Same State NG 2) ... 140

Query block: Item GCUACAUGAGGAUCACCCAUGUGUGCGUGGGAGUGAGUGGCUUAGGAUAUCUAUGACUUUAGUUGAGAGAAGGAGGAUUGCUGU [SS-NG3-LRO11] (Eterna round: R96, puzzle: Same State NG 3) : provide apparent KD of MS2 coat protein
Result block: 105

Query block: Item UGGUACAUGGGAGGAUAUGGGCAAGAGACAUGAGGAUCACCCAUGUAUUAAAAGCCGAAAGGCAUCUAGAAGGCCCAUGUACCU [JL SSNG1 3.86] (Eterna round: R96, puzzle: Same State NG 2) : provide apparent KD of MS2 coat protein
Result block: 55.9

Query block: Item AGAUGUUAAUUAGGAUAUGGGCACAUGAGGAUCACCCAUGUAACGUAGAUACGAUGUGGUCAAGUCUAGAAGGGAUAGCUAACA [SameState NG2 #77] (Eterna round: R96, puzzle: Same State NG 2) : provide apparent KD of MS2 coat protein
Result block: 59.3

Query block: Item UUCUCCUUUUUUUACAUGAGGAUCACCCAUGUUUACCCUACGUAGGAUAUCGAUGAGUGUUUGUACGAGAAGGACGUAGUAAGU [JR_SSND3_Sub058] (Eterna round: R96, puzzle: Same State NG 3) : provide apparent KD of MS2 coat protein
Result block: 106

* * *

- Tested on: MS2 coat protein
- METHOD_NOTES: apparent KD of MS2 coat protein; designed switch direction (-1 OFF switch, 1 ON switch): 1; higher = weaker reporter binding
- CONDITION_DETAILS: Eterna round: R95; input ligand: microRNA oligo, concentration not stated
VALUE_TYPE: apparent KD of MS2 coat protein (nM)
Return type: number; implicit unit nM.

AGUCCAGCCUGAGCUGGACAAAAGCAUGUACAUGAGGAUCACCCAUGUCAUGUACAAGCUUUUUGCUCGUCUUAAAU [Mat - hsa-mir-208a - Mod of JL - D22] (puzzle: Sensor for hsa-mir-208a) ... 16.4

Query block: Item UAGAAACAUGAGGAUCACCCAUGUGUCAAAGACAUAGGAUAUCACAACUGGCGCCAGUCGUGAGAAGGGUGGUAAA [Usonesat] (puzzle: Same State 1) : provide apparent KD of MS2 coat protein
Result block: 53.6

* * *

- Test system: MS2 coat protein
- METHOD_NOTES: apparent KD of MS2 coat protein; designed switch direction (-1 OFF switch, 1 ON switch): -1; higher = weaker reporter binding
- CONDITION_DETAILS: input ligand: FMN 200 uM
Examples of sequences with documented apparent KD of MS2 coat protein follow.
Return type: number; implicit unit nM.

UGAGCUUACGCAGGAUAUGAGGAUCACCCAUAGAAGGAUAUCGAAAGAGAAGGUCUGAGGAUUACCCAGAAGGGCGUGGGCUCU [pwkr exNG2 2xF5 2xFMN.11] (Eterna round: R96, puzzle: Exclusion NG 2) ... 1290
AAAUCGGAGGAGGAUAUCGUACAGGAAACGGUGCGAGAAGGUUUCACAUGAGGAUCACCCAUGUCAAAUAGCGA [EX6 #58] (Eterna round: R97, puzzle: Exclusion 6) ... 21

For the next question, use this sequence.
Query block: Item ACACUGCGAGGAUAUACAUGAGGAUCACCCAUGUAUCGGUAGACAAGGUUAAUUUAAGGUAGAAGGCGCGUAUU [JR_Ex3_Sub008] (Eterna round: R97, puzzle: Exclusion 3) : provide apparent KD of MS2 coat protein
Result block: 36.9
